src = patent US9732077B2

# reported Fold Selectivity OX2R vs. OX1R; entries follow
- TARGET_OF_ASSAY: human orexin-2 receptor (Homo sapiens)
- Construct: expressed in transfected cells; host or cells: CHO cells (G418 selection)
- Sequence (O43614 1-444): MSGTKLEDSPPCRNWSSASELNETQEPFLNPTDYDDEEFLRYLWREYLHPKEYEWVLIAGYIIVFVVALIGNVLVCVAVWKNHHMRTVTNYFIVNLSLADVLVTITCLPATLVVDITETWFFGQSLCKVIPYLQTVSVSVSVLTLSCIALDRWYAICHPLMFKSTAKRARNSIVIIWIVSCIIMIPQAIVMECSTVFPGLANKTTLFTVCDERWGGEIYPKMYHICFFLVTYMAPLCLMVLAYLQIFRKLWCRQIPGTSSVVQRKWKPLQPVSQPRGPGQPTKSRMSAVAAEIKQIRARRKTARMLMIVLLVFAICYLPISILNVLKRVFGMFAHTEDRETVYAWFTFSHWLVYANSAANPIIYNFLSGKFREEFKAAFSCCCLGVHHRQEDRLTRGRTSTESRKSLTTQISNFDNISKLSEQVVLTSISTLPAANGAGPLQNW
- ASSAY_DETAILS: OX2R FLIPR Ca flux assay (CHO cells)
- Assay type: cell-based
- CONDITIONS: ratio of OX1R FLIPR to OX2R FLIPR

// below: answered compounds
[
  {
    "COMPOUND": "CC(C)(O)c1csc(N2CCCN(C(=O)c3ccccc3C3CC3)CC2)n1 [Example 25]",
    "Fold Selectivity OX2R vs. OX1R": ">92 fold"
  },
  {
    "COMPOUND": "CCOc1ncccc1C(=O)N1CCCN(c2nc(C(C)(C)O)c(C)o2)CC1 [Example 21]",
    "Fold Selectivity OX2R vs. OX1R": "231 fold"
  },
  {
    "COMPOUND": "Cc1oc(N2CCCN(C(=O)c3cccnc3OCC(F)(F)F)CC2)nc1C(C)(C)O [Example 17]",
    "Fold Selectivity OX2R vs. OX1R": "146 fold"
  }
]

Just so you know, measured Fold Selectivity OX2R vs. OX1R for Cc1cc(C)nc(N2CCCN(C(=O)c3ccccc3OC(F)(F)F)CC2)n1 [Example 10] came out at >277 fold

Just so you know, measured Fold Selectivity OX2R vs. OX1R for Cc1cc(C)nc(N2CCCN(C(=O)c3cccnc3-c3ccccc3)CC2)n1 [Example 11] came out at >60 fold

Just so you know, measured Fold Selectivity OX2R vs. OX1R for CCOc1ccccc1C(=O)N1CCCN(c2nc(C)cc(C)n2)CC1 [Example 7] came out at 132 fold

Just so you know, measured Fold Selectivity OX2R vs. OX1R for Cc1oc(N2CCCN(C(=O)c3cccnc3OCC(F)F)CC2)nc1C(C)(C)O [Example 16] came out at 142 fold

Just so you know, measured Fold Selectivity OX2R vs. OX1R for Cc1oc(N2CCCN(C(=O)c3ccccc3-n3nccn3)CC2)nc1C(C)(C)O [Example 13] came out at 47 fold

Just so you know, measured Fold Selectivity OX2R vs. OX1R for Cc1cc(C)nc(N2CCCN(C(=O)c3ccccc3C3CC3)CC2)n1 [Example 9] came out at 106 fold
